- measured-target: CD11b/CD18 (Homo sapiens, UniProt P05107+P11215)
- Construct: endogenous in cells; host or cells: human monocyte-derived macrophages from buffy coats
- Sequence (P05107 23-769, other chains not shown): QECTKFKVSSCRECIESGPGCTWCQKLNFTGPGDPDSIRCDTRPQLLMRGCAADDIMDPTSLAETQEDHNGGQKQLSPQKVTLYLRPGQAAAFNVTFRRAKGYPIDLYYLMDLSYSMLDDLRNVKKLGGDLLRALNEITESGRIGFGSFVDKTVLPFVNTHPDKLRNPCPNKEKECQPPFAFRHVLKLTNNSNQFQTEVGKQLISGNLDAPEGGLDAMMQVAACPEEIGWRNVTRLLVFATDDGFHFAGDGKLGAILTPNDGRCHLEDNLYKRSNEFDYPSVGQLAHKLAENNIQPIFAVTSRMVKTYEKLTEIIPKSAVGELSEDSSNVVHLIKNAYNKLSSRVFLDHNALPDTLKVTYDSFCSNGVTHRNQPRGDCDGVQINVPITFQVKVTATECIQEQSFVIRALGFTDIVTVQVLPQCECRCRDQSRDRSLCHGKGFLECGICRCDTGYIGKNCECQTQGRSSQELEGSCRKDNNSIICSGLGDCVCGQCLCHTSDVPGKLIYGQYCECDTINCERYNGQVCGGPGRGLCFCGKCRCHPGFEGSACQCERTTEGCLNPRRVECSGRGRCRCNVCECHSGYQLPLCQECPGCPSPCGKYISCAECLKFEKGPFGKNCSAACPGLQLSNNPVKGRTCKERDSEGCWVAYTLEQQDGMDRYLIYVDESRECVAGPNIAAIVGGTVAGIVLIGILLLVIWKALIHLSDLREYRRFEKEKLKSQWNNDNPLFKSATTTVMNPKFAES
- assay-notes: Downmodulation of CD11b/CD18 on macrophages
- Type: cell-based
- condition: wells coated with peptides 0.5 mM or mAb IB4 50 μg/ml
Where no end group is shown, it is not given here.
property: reduction of binding of C3bi-coated erythrocytes to macrophages

* RADPHQGVLAQGDIIMDAKG [FHA Cb] | no significant effect
* AADPHQGVLAQGDIIMDAKG [FHA Cc] | no significant effect
* GTLLLRNDALTENGTVTISA [FHA Cd] | no significant effect
* RGDPHQGVLAQGDIIMDAKG [FHA Ca] | 61±7%
